# IC50 measurements, system: HCK (Homo sapiens (Human))
# Sequence (P08631 whole entry): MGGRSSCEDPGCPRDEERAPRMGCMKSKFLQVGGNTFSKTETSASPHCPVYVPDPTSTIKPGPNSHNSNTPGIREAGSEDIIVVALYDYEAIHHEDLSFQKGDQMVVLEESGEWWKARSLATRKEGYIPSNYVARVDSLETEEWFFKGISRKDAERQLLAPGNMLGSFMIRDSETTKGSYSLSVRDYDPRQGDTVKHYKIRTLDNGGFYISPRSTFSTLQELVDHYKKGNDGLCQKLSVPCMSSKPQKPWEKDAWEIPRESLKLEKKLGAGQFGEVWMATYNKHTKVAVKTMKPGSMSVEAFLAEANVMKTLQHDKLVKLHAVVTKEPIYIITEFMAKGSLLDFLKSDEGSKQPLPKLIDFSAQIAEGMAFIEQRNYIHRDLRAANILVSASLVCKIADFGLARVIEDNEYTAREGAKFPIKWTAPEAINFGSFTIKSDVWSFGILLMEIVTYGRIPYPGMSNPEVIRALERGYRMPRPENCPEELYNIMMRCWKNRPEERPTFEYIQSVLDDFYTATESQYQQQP
# output: bare number, implied unit nM

[
  {
    "Mol": "COCCOc1ccc(Nc2cc(-n3ccnc3Nc3c(C)cccc3Cl)ncn2)cc1",
    "Test Result": 307
  }
]

Note: attention shifts to another entry.
input: Identify the measured IC50 of CCN1CCN(c2ccc(Nc3cc(-n4ccnc4Nc4c(C)cccc4C)ncn3)cc2)CC1 for HCK (Homo sapiens (Human)).
output: 111

Hello, the source for this data is patent US10287268B2, in case you need it.
